Reported growth inhibition values follow for various molecules
- Assay notes: NCI Yeast Anticancer Drug Screen. Data for the cln2 rad14 strain (AID 165);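 also: 0% = growth equal to vehicle treated cultures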
- Stated conditions: S. cerevisiae cln2 rad14 strain, at 5.0 µM (retest, dose inferred, filed as 0.5), hits give high values
Compounds without any hit were thinned out: in the full panel of roughly 79,000, 15% have a hit. The source made the active and inactive calls. Rule as the data show it: active = growth inhibition above about 70%; inactive = the rest.
Recorded endpoint: growth inhibition

> print(dat)
                                   molecule          result
1  CCS(=O)(=O)c1ccc(NC(=O)OC2CC(C)CCC2C(C)C)cc1 (centres undefined)  12% (inactive)
2  O=C(c1ccc(Br)cc1)C1N=NCC1c1ccccc1 (centres undefined)   6% (inactive)
3          Oc1ccc(N(Cc2ccccc2)Cc2ccccc2)cc1   0% (inactive)
4     O=C(Nc1c(Cl)cccc1Cl)OCc1ccc2c(c1)OCO2  33% (inactive)
5                            Oc1ccc[nH]c1=S   8% (inactive)
6  COc1ccc(C2COc3cc(OC(C)=O)c(OC(C)=O)cc3C2)cc1 (centres undefined)   4% (inactive)
7  Nc1nc(=O)[nH]c([O-])c1N=O.Nc1nc(=O)[nH]c([O-])c1N=O.[Ag+].[Ag+]  28% (inactive)
8  CCC(C)SSc1ccccc1C(=O)Nc1ccc(Cl)cc1 (centres undefined)  -5% (inactive)
9                 CCOC(=O)/C=C(/Cl)C(=O)OCC   1% (inactive)

Attribution: PubChem BioAssay (NCI)
